In this section we review reported growth values for a set of compounds.
# Tested on: 786-0 renal
# assay: NCI-60 one-dose screen, 48 h (100 = growth as untreated, 0 = no growth, -100 = all killed)
# condition.context: 10 µM unless noted
# Experimental: Cells are grown in 96 well plates and exposed to the test compound for 48 hours. Compounds are tested at a single concentration, which is 10^-5 M for most compounds. The reported endpoint is percent growth (GI% or GIPRCNT), where numbers from 0 - 100% represent growth inhibition, and numbers from -100% - 0 represent cell death. For example, a value of 40 represents 60% growth inhibition. A value of 0 means no net growth occurred over the course of the experiment. […]
This is part of a sample that, as a whole, favours compounds with a hit. Of some 83,000 tested, about 20% had one in any assay. Active and inactive are the calls of the source. Rule for the calls: active = growth percent below 10; inactive = the rest.

Data request, read-out growth, for O=C(NNc1nc2cc(F)cc(F)c2n2cccc12)c1ccncn1
7.83% (active)

Data request, read-out growth, for C/C(=N\NC(=O)CSc1nc2sc3c(c2c(=O)n1-c1ccccc1)CCC(C)C3)c1ccc(Cl)cc1 (configuration not stated)
7.93% (active)

Data request, read-out growth, for COc1ccc2c(c1)oc1c3[nH]c4ccccc4c3c3c(c21)C(=O)N(O)C3=O
31.1% (inactive)

Data request, read-out growth, for CC1OC(O[C@@H]2[C@H](O)C(CO)OC(O[C@H]3COC(O[C@H]4CC[C@]5(C)[C@H]6CC[C@]78OC[C@@]9(CC[C@](C)(C=O)C[C@H]97)C(=O)C[C@@]8(C)[C@]6(C)CC[C@H]5C4(C)C)[C@@H](O)[C@@H]3O)[C@H]2OC2OC[C@@H](O)[C@@H](O)[C@@H]2O)[C@@H](O)[C@@H](O)[C@H]1O (some centres not stated)
95.5% (inactive)

Data request, read-out growth, for C=CCn1c(SCC(=O)Nc2cccc(C(=O)/C=C/c3cc(OC)c(OC)c(OC)c3)c2)nc2ccccc2c1=O
43.7% (inactive)

Data request, read-out growth, for COc1ccc(Oc2ccc(C3CC(c4cc(OC)c(OC)c(OC)c4)=NN3C(C)=O)cc2)cc1 (configuration not stated)
29.2% (inactive)

Data request, read-out growth, for COCCOc1ccc(-c2csc(NC(C)=O)n2)cc1NS(=O)(=O)c1cccc2c(N(C)C)cccc12
95.8% (inactive)

Source of measurements: PubChem BioAssay (NCI)
